Below is a list of entries, each paired with its recorded log10 IC50 value.
- Tested on: NCI-H3122
- experiment.notes: Antiproliferative activity against human NCI-H3122 cells after 72 hrs by SRB assay
- Assay type: functional, cell-based
- condition.set: NCI-H3122, 72 h
Units before log transform: nM; reported quantity: IC50; transform: log10.

Below, each entry is followed by its recorded log10 IC50 result.
chemical.string | system | log10 IC50
CCNC(=O)c1noc(-c2cc(C(C)C)c(O)cc2O)c1-c1ccc(CNCC(=O)Nc2ccc(OC)c(Nc3ncc(Cl)c(Nc4ccccc4S(=O)(=O)C(C)C)n3)c2)cc1 | NCI-H3122 | 1.76
COc1ccc(Nc2ncc(Cl)c(Nc3ccccc3S(=O)(=O)C(C)C)n2)cc1NC(=O)CNC(=O)c1noc(-c2cc(C(C)C)c(O)cc2O)c1-c1ccc(CN2CCOCC2)cc1 | NCI-H3122 | 2.50

Query :: Consider the molecule CCNC(=O)c1noc(-c2cc(C(C)C)c(O)cc2O)c1-c1ccc(CN2CCN(CC(=O)NCC(=O)Nc3ccc(OC)c(Nc4ncc(Cl)c(Nc5ccccc5S(=O)(=O)C(C)C)n4)c3)CC2)cc1 . State its measured log10 IC50.
Result :: 1.66

Query :: Please list log10 IC50 recorded for the molecule CCNC(=O)c1noc(-c2cc(C(C)C)c(O)cc2O)c1-c1ccc(CN2CCOCC2)cc1
Result :: 1.09

Query :: Could you please provide reported log10 IC50 for CCNC(=O)c1noc(-c2cc(C(C)C)c(O)cc2O)c1-c1ccc(C(=O)N2CCN(CC(=O)Nc3cccc(Nc4ncc(Cl)c(Nc5ccccc5S(=O)(=O)C(C)C)n4)c3)CC2)cc1 ? Thanks!
Result :: 2.05

Query :: Provide only the value of recorded log10 IC50 for CCNC(=O)c1noc(-c2cc(C(C)C)c(O)cc2O)c1-c1ccc(CN2CCN(CC(=O)Nc3ccc(OC)c(Nc4ncc(Cl)c(Nc5ccccc5S(=O)(=O)C(C)C)n4)c3)CC2)cc1
Result :: 1.04
